Recorded values, source paper PMC10397247.

- experimental target: T1, 4H1360-AA
- T1 chain: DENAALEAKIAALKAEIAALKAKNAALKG
- measurement description: two-hybrid library CCmax;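 further: natural log of median RNA to DNA barcode read ratio; higher means stronger binding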
- condition context: mean of both orientations
Form field: interaction score (one value per entry).
quantity: interaction score

1) DENAALEAKIAALKAEIAALEAKIAALEG [4H1349-AA] ... 0.392
2) DEIAALEAENAALEAEIAALEAEIAALKG [4H130-AA] ... 1.22
3) DENAALEAENAALKAKIAALKAEIAALEG [4H1257-AA] ... -0.666
4) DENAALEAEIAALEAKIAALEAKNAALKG [4H1064-AA] ... 0.702
